We begin with a simple list: items and their reported 100 nM Rat IL-25-MMH Bound (RU).
Molecular target: T1, rat IL-25 expressed with a C-terminal myc-myc-hexahistidine tag (rat)
T1 construct: also called Rat IL-25-MMH
T1 chain: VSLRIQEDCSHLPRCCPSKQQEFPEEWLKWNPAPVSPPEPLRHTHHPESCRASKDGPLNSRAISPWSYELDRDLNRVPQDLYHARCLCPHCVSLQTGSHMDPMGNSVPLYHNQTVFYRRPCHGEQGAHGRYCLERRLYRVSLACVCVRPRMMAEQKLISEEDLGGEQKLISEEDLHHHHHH
Assay: SPR Biacore, antibody captured, 37C
ASSAY_ENDPOINT: 100 nM Rat IL-25-MMH Bound (RU)

BINDER: H4H10863P (antibody, human IgG4, V domains shown, H4H prefix = human IgG4 Fc) VH: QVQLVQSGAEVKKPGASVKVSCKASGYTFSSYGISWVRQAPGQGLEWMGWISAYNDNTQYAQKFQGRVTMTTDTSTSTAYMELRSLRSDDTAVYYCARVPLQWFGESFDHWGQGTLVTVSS VL: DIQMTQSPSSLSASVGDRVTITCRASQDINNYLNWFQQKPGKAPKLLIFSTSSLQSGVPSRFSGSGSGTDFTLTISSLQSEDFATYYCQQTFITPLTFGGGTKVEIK
NUMERIC_READOUT: 41

BINDER: H4H10883P (antibody, human IgG4, V domains shown, H4H prefix = human IgG4 Fc) VH: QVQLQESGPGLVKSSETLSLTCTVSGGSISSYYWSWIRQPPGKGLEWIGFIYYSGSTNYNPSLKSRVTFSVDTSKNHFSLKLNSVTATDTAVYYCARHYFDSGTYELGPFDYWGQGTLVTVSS VL: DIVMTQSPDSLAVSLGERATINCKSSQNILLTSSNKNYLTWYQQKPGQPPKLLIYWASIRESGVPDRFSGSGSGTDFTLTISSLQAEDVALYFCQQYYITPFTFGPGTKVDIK
NUMERIC_READOUT: 0

BINDER: H4H10901P (antibody, human IgG4, V domains shown, H4H prefix = human IgG4 Fc) VH: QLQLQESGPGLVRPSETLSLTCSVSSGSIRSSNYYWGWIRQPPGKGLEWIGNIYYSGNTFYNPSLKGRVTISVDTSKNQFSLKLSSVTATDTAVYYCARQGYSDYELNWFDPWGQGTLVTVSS VL: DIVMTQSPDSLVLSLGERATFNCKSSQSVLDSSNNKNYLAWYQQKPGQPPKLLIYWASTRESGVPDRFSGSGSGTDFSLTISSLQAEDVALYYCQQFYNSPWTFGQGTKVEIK
NUMERIC_READOUT: 1

These entries and their values trace back to patent US20160083466A1.
